The origin of these recorded values is patent US20200247800A1.

Please provide measured IC50 for the entries that follow.
- EXPERIMENTAL SYSTEM: human NOX4 (Homo sapiens, UniProt Q9NPH5)
- Construct: membrane fraction used
- Sequence (Q9NPH5 whole entry): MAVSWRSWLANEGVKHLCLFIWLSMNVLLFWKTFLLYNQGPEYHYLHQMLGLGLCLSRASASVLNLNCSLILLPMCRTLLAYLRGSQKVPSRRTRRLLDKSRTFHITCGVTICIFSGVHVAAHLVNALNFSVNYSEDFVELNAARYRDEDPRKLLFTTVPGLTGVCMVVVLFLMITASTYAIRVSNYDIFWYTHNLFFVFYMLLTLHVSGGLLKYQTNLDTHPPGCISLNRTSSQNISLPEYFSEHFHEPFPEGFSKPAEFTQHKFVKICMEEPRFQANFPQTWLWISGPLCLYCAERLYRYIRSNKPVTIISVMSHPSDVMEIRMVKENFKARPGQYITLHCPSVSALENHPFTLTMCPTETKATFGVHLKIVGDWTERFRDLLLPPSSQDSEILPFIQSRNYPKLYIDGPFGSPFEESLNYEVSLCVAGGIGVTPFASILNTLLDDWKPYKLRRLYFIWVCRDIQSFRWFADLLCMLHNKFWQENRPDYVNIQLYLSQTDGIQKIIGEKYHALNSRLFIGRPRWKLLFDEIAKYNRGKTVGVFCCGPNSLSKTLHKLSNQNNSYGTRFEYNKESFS
- Sequence (P13498 whole entry partner): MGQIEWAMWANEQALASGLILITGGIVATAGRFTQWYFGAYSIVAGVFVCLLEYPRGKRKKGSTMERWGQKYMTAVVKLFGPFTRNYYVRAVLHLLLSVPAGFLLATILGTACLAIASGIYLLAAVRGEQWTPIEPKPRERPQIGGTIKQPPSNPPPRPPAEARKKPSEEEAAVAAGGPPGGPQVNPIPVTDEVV
- PROCEDURE DETAILS: Cell free membrane based in vitro NOX4 assay: H2O2 production by membranes expressing human NOX4, measured with Amplex Red
- ASSAY SETUP: class symbols

Challenge: Return the recorded IC50 value; entry: CCc1nn(C)c2[nH]c(-c3cc(F)ccc3F)c(O)c(=O)c12 [Example 163]
Response given: > 150 nM

Challenge: Identify measured IC50 corresponding to CCc1nn(CCCN2CCOCC2)c2[nH]c(-c3cccc(C(F)(F)F)c3F)c(O)c(=O)c12 [Example 174]
Response given: 100 to 150 nM

Challenge: Respond only with IC50 recorded for Cn1ncc2c(=O)c(O)c(-c3ccc(F)c(C(F)(F)F)c3)[nH]c21 [Example 6]
Response given: 100 to 150 nM

Challenge: Item Cn1nc(C(F)(F)F)c2c(=O)c(O)c(-c3ccc(NS(C)(=O)=O)cc3F)[nH]c21 [Example 237] : provide IC50
Response given: > 150 nM

Challenge: Annotate the molecule Cn1nc(C(F)F)c2c(=O)c(O)c(-c3ccccc3Cl)[nH]c21 [Example 85] with its measured IC50.
Response given: > 150 nM

Challenge: Give recorded IC50. Cn1nc(CC2CCOCC2)c2c(=O)c(O)c(-c3c(F)cccc3F)[nH]c21 [Example 209]
Response given: 50 to 100 nM

Challenge: Identify measured IC50 associated with O=c1c(O)c(-c2ccccc2Cl)[nH]c2c1cnn2CC(F)(F)F [Example 8]
Response given: 50 to 100 nM

Challenge: Identify the reported IC50 for the following entry. Cc1nn(C2CCCC2)c2[nH]c(-c3c(F)cccc3F)c(O)c(=O)c12 [Example 127]
Response given: < 50 nM

Challenge: Quote IC50 reported for Cn1nc(CN2CCN(C3CC3)CC2)c2c(=O)c(O)c(-c3c(F)cccc3F)[nH]c21 [Example 216] please.
Response given: > 150 nM

Challenge: Return reported IC50. Input molecule: CCn1cnc2c(=O)c(O)c(-c3c(F)cccc3F)[nH]c21 [Example 101]
Response given: > 150 nM

Challenge: Give the measured IC50 for Cc1nn(C)c2[nH]c(-c3c(F)cccc3F)c(O)c(=O)c12 [Example 13]
Response given: < 50 nM

Challenge: Using the record for CCn1nc(C)c2c(=O)c(O)c(-c3ccccc3OC)[nH]c21 [Example 110] , state its measured IC50.
Response given: > 150 nM

Challenge: Identify measured IC50 associated with COCCOc1ccc(-c2[nH]c3c(c(C(F)(F)F)nn3C)c(=O)c2O)c(F)c1 [Example 66]
Response given: > 150 nM

Challenge: Specify reported IC50 for the molecule shown: Cc1nn(CCN2CCOCC2)c2[nH]c(-c3c(F)cccc3F)c(O)c(=O)c12 [Example 88]
Response given: 50 to 100 nM

Challenge: Item COc1ccc(-c2[nH]c3c(c(C)nn3C3CC3)c(=O)c2O)c(F)c1 [Example 114] : provide IC50
Response given: > 150 nM

Challenge: Report IC50, nothing else, for this molecule: Cc1nn(C2CCOCC2)c2[nH]c(-c3cc(CNC(=O)C(C)(C)C)ccc3Cl)c(O)c(=O)c12 [Example 142]
Response given: > 150 nM

Challenge: Please look at this molecule and report its IC50: Cn1nc(CN2CC[C@H](F)C2)c2c(=O)c(O)c(-c3c(F)cccc3F)[nH]c21 [Example 195]
Response given: 100 to 150 nM

Challenge: Tell me its IC50 given Cc1cc2c(=O)c(O)c(-c3ccc(F)c(C(F)(F)F)c3)[nH]c2s1 [Example 61] as the entry.
Response given: 50 to 100 nM

###

- EXPERIMENTAL SYSTEM: human NOX4 (Homo sapiens, UniProt Q9NPH5)
- Construct: expressed in transfected cells; membrane fraction used
- PROCEDURE DETAILS: Cell free membrane based in vitro NOX4 assay: H2O2 production by membranes expressing human NOX4, measured with Amplex Red
- Format: biochemical
- ASSAY SETUP: 10.0 μM compound, read-out: Percentage inhibition at 10.0 μM
Hi there, I'd appreciate the recorded inhibition at 10 µM for every entry that follows.
Please give a number only; it is taken to be in %.

Challenge: State its inhibition at 10 µM for this compound: Cn1nc(CC2CCOCC2)c2c(=O)c(O)c(-c3c(F)cccc3F)[nH]c21 [Example 209]
Response given: 89.8

Challenge: Respond only with inhibition at 10 µM recorded for CCn1nc(C)c2c(=O)c(O)c(-c3ccccc3Cl)[nH]c21 [Example 26]
Response given: 64.5

Challenge: Consider the compound Cc1nn(C)c2[nH]c(-c3ccc(C(F)(F)F)cc3F)c(O)c(=O)c12 [Example 21] . State its measured inhibition at 10 µM.
Response given: 100

Challenge: Identify inhibition at 10 µM associated with the compound Cc1nn(CCN2CCOCC2)c2[nH]c(-c3cccc(C(F)(F)F)c3F)c(O)c(=O)c12 [Example 153]
Response given: 93

Challenge: Provide only the value of recorded inhibition at 10 µM for CCc1nn(CCN2CCOCC2)c2[nH]c(-c3ccccc3Cl)c(O)c(=O)c12 [Example 146]
Response given: 81.8

Challenge: For the compound CCc1nn(CCN2CCOCC2=O)c2[nH]c(-c3ccccc3Cl)c(O)c(=O)c12 [Example 167] , give its measured inhibition at 10 µM value.
Response given: 71.8

Challenge: Give the reported value of inhibition at 10 µM for this record: Cc1nn(C2CCOCC2)c2[nH]c(-c3cc(CNC(=O)C(C)(C)C)ccc3Cl)c(O)c(=O)c12 [Example 142]
Response given: 69.9

Challenge: Item O=c1c(O)c(-c2c(F)cccc2F)[nH]c2c1c(CO)nn2CCC1CCOCC1 [Example 217] : provide inhibition at 10 µM
Response given: 89.7

Challenge: Recall and state the measured inhibition at 10 µM for CCn1nc(C)c2c(=O)c(O)c(-c3c(F)cc(OC)cc3F)[nH]c21 [Example 118] .
Response given: 77.5

Challenge: For CCc1nn(CCC(C)C)c2[nH]c(-c3c(F)cccc3F)c(O)c(=O)c12 [Example 180] , write its inhibition at 10 µM.
Response given: 100

Challenge: Please report inhibition at 10 µM for the following compound: Cn1ncc2c(=O)c(O)c(-c3c(F)cccc3Cl)[nH]c21 [Example 7]
Response given: 100

Challenge: Please supply the value of reported inhibition at 10 µM for the item COc1cc(F)c(-c2[nH]c3c(c(C)nn3C)c(=O)c2O)c(F)c1 [Example 67]
Response given: 85.7

Challenge: Using known records, supply inhibition at 10 µM for Cc1nn(C2CCC2)c2[nH]c(-c3c(F)cccc3F)c(O)c(=O)c12 [Example 131]
Response given: 90.2

Challenge: Answer with the recorded inhibition at 10 µM for the compound listed here: CCc1nn(C2CC2)c2[nH]c(-c3c(F)cccc3F)c(O)c(=O)c12 [Example 140]
Response given: 100

Challenge: Give the measured inhibition at 10 µM for Cn1nc(C(F)(F)F)c2c(=O)c(O)c(-c3cc(CNC(=O)C(C)(C)C)ccc3Cl)[nH]c21 [Example 132]
Response given: 88.7

Challenge: Return the recorded inhibition at 10 µM value; entry: CCc1nn(CCN2CCOCC2)c2[nH]c(-c3c(F)cccc3F)c(O)c(=O)c12 [Example 156]
Response given: 100

Challenge: Give a short answer stating reported inhibition at 10 µM for CCCn1nc(CO)c2c(=O)c(O)c(-c3c(F)cccc3F)[nH]c21 [Example 182] .
Response given: 100

###

- EXPERIMENTAL SYSTEM: human NOX4 (Homo sapiens, UniProt Q9NPH5)
- Construct: expressed in transfected cells; membrane fraction used
- PROCEDURE DETAILS: Cell free membrane based in vitro NOX4 assay: H2O2 production by membranes expressing human NOX4, measured with Amplex Red
- Assay type: biochemical
- ASSAY SETUP: 1.0 μM compound, read-out: Percentage inhibition at 1.0 μM
Lab note: anything with inhibition at 1 µM at or over 90% counts as rule met; the rest go in rule not met.

Challenge: Assess whether reported inhibition at 1 µM for COc1ccc(-c2[nH]c3c(c(C(F)(F)F)nn3C)c(=O)c2O)c(Cl)c1 sits at 90% or higher.
Response given: rule not met

Challenge: Determine whether measured inhibition at 1 µM meets or exceeds 90% for CCn1nc(C)c2c(=O)c(O)c(-c3c(F)cccc3Cl)[nH]c21
Response given: rule not met

Challenge: Quick check: does CCCn1nc(CO)c2c(=O)c(O)c(-c3c(F)cccc3F)[nH]c21 have inhibition at 1 µM greater than or equal to 90%?
Response given: rule met

Challenge: Exam item: decide whether the reported inhibition at 1 µM for CCc1nn(C)c2[nH]c(-c3cc(F)cc(F)c3)c(O)c(=O)c12 is at least 90%.
Response given: rule not met
